Target: HLA-A*01:01
Experiment: IEDB peptide-MHC binding, purified MHC/competitive/radioactivity; filed as Kd, often an IC50 or EC50 that approximates it; bounds were set here for any values at or beyond the usual limits of such assays
Settings: source organism: Homo sapiens
pKd: −log10 of the molar value.
Measured endpoint: pKd

Ask: Consider the sequence `DAKIRIFDL` . State its measured pKd.
Result: ≤ 4.30
